Hey, just so you know, these numbers are from the Immune Epitope Database (IEDB).

- tested target: HLA-B*35:01
- protocol description: IEDB peptide-MHC binding, purified MHC/competitive/radioactivity; filed as Kd, often an IC50 or EC50 that approximates it; bounds were set here for any values at or beyond the usual limits of such assays
- test parameters: source organism: SARS coronavirus Tor2
The following sequences are listed with their measured Kd values.
Respond with the bare value in µM.

- input sequence: "TPRDLGACI"
  tested target: "HLA-B*35:01"
  measured result: 12.9

Data request: Recall and state the measured Kd for APYMVGDVI .
Data returned: 11

----------
The following sequences are listed with their measured pKd values.
- tested target: HLA-A*11:01
- protocol description: IEDB peptide-MHC binding, purified MHC/direct/fluorescence; filed as Kd, often an IC50 or EC50 that approximates it; bounds were set here for any values at or beyond the usual limits of such assays
- test parameters: source organism: Giardia intestinalis
When answering, recall that pKd equals minus log10 of the concentration in mol/L, and write that number alone.

- input sequence: "SLRPNDIVY"
  pKd: 5.15

Data request: Recall and state the measured pKd for RTMPLSRFT .
Data returned: 5.57

----------
- tested target: HLA-B*18:01
- protocol description: IEDB peptide-MHC binding, purified MHC/competitive/fluorescence; filed as Kd, often an IC50 or EC50 that approximates it; bounds were set here for any values at or beyond the usual limits of such assays
- test parameters: source organism: Canarypox virus
parameter: Kd

Data request: Write Kd of GTIIVHPNK ; system used: HLA-B*18:01
Data returned: ≥ 20 µM

----------
- tested target: HLA-B*58:01
- protocol description: IEDB peptide-MHC binding, purified MHC/direct/fluorescence; filed as Kd, often an IC50 or EC50 that approximates it; bounds were set here for any values at or beyond the usual limits of such assays
- test parameters: source organism: Mycobacterium avium 104
parameter: Kd

Data request: Recall and state the measured Kd for IAHVRDVVM .
Data returned: ≥ 20 µM

----------
- tested target: HLA-A*11:01
- protocol description: IEDB peptide-MHC binding, purified MHC/competitive/radioactivity; filed as Kd, often an IC50 or EC50 that approximates it; bounds were set here for any values at or beyond the usual limits of such assays
- test parameters: source organism: Dengue virus 2 Peru/IQT2913/1996
parameter: pKd
When answering, recall that pKd equals minus log10 of the concentration in mol/L, and write that number alone.

Data request: Recall and state the measured pKd for TVMAFHLTTR .
Data returned: 6.97

----------
- tested target: HLA-A*31:01
- protocol description: IEDB peptide-MHC binding, purified MHC/direct/fluorescence; filed as Kd, often an IC50 or EC50 that approximates it; bounds were set here for any values at or beyond the usual limits of such assays
- test parameters: source organism: Vibrio cholerae
parameter: Kd (nM)
Respond with the bare value in nM.

Data request: Recall and state the measured Kd for MMFDAMGAL .
Data returned: 921

----------
- tested target: HLA-A*68:02
- protocol description: IEDB peptide-MHC binding, purified MHC/competitive/radioactivity; filed as Kd, often an IC50 or EC50 that approximates it; bounds were set here for any values at or beyond the usual limits of such assays
- test parameters: source organism: Homo sapiens
The following sequences are listed with their measured pKd values.
When answering, recall that pKd equals minus log10 of the concentration in mol/L, and write that number alone.

- input sequence: "EMREQHDAQV"
  pKd: 6.34

Now for another entry.
Data request: Recall and state the measured pKd for EMKTQLEEL .
Data returned: 6.55
